Origin of values: patent US20260240851A1

- PROTOCOL_SUMMARY: LTI-291-002 multiple ascending dose study: plasma and CSF pharmacokinetics
- Type: in vivo, human
- TEST_PARAMETERS: human, plasma, oral, 3 mg, 3 mg daily, dose 7, geometric mean
ENDPOINT_NAME: Cmax (µg/mL)
Record the value in µg/mL, omitting the unit from your answer.

Exam item: Specify reported Cmax for the compound shown: CCCCCO[C@H]1CC[C@H](NC(=O)c2cnn3c(C)cc(C)nc23)CC1
Marked response: 0.142

====

- PROTOCOL_SUMMARY: LTI-291-002 multiple ascending dose study: plasma and CSF pharmacokinetics
- Format: in vivo, human
- TEST_PARAMETERS: human, plasma, oral, 3 mg, 3 mg daily, dose 1, geometric mean
ENDPOINT_NAME: AUC(0-inf) (ng·h/mL)
State just the number; it will be interpreted in ng·h/mL.

Exam item: Tell us which AUC(0-inf) value is on record for CCCCCO[C@H]1CC[C@H](NC(=O)c2cnn3c(C)cc(C)nc23)CC1 [Compound A]
Marked response: 2450
